From: PubChem BioAssay

Test system: XIP peptide (Xip251-270)
assay_info: small-molecule binders of XIP peptide, primary screen, biochemical, small-molecule microarray, fluorescence 635/667 nm, 0.5 µg/mL protein (AID 1183)
study_conditions: small-molecule microarray binding, fluorescence 635 nm; higher = more signal
Label False if composite z-score falls below 0.7; label True in every other case.

Worked examples, 5 molecules total:
INSERT INTO measurements (molecule, assigned_class) VALUES
  ('COC(=O)[C@@]1(Cc2ccc(OC)cc2)[C@H]2c3cc(C(=O)N(C)C)n(CCc4c[nH]c5ccc(O)cc45)c3C[C@H]2CN1C(=O)c1ccccc1', 'False'),
  ('COCCOC(=O)N1C(=O)[C@@]2(c3cc(C#CC4(O)CCCCCC4)ccc31)[C@H](C(N)=O)[C@H]1C(=O)O[C@H](c3ccccc3)[C@H](c3ccccc3)N1[C@@H]2c1ccccc1OCCO', 'True'),
  ('COc1ccccc1CN1C(=O)c2ccccc2[C@](Cc2ccccc2I)(C(=O)NC(C)C)[C@@H]1c1ccc(CO)cc1', 'False'),
  ('COc1ccc([Si](C)(C)[C@H]2[C@H](CCn3cc([C@H](O)c4ccccc4)nn3)O[C@@]3(C(=O)N(Cc4cccc(N5C(=O)c6cccc7cccc5c67)c4)c4ccccc43)[C@@H]2C)cc1', 'False'),
  ('COC(=O)[C@H](Cc1ccccc1)N1CC(/C=C/C2CC2)=C[C@@H]1[C@@H](O)Cc1ccccc1', 'False');

Check the entry COCCCNC(=O)[C@@]1(Sc2ccc(C)cc2)CC(=O)N(C2Cc3ccccc3C2)[C@@H]1c1ccc(CO)cc1I : does composite z-score equal or exceed 0.7?
False

Test whether the molecule COCCOC(=O)N1C(=O)[C@@]2(c3cc(C#CC4=CCCCC4)ccc31)[C@H](c1ccc(O)cc1)N1[C@H](c3ccccc3)[C@H](c3ccccc3)OC(=O)[C@H]1[C@@H]2C(=O)Nc1nc2ccccc2s1 records composite z-score of 0.7 or higher.
True

Could you verify whether the entry CC(C)N1CC=CC23O[C@@H]4C=CCOC(=O)[C@@H]4[C@H]2C(=O)N(C(C)CO)[C@@H]3C1=O (stereo partly drawn) shows composite z-score of no less than 0.7?
False

Entry C=CC[C@]12N=C(c3ccc(OCCCO)cc3)O[C@H]1c1ccccc1N(C)C2=O : is its composite z-score no less than 0.7?
True

composite z-score >= 0.7 for CCOC(=O)C[C@H]1[C@H](OC(=O)c2ccccc2-c2ccccc2)[C@@H](NC(=O)c2ccc3ccccc3n2)c2cc(OCCCO)ccc2N1C(=O)c1ccc2ccccc2n1 ?
False

Decide: is the reported value of composite z-score for CC=CC(O)C1C=CC2C(=O)N(C)C(=O)C2N1N1CCCCC1 (stereo not drawn) equal to or greater than 0.7?
True

State whether the measured composite z-score reaches 0.7, counting equality as reaching it, for C=C(COC)/C(=C/C[C@@H](OC(=O)c1ccncc1)c1cccc(OCCO)c1)c1cnc2ccccc2c1
True

I'd appreciate it if you could say whether CCOC(=O)[C@H]1C/C=C/C[C@H](C(=O)OCC)C(=O)O[C@H]2[C@@H](OC)O[C@H](CO)[C@@H](OC(=O)CCc3ccccc3)[C@@H]2OC1=O has composite z-score at least equal to 0.7.
False

Identify whether the reported composite z-score of the following molecule is 0.7 or greater: C=CCN1C(=O)[C@@]2(O[C@@H](CCO)[C@H]([Si](C)(C)c3ccc(OC)cc3)[C@H]2C)c2cc(N3C(=O)c4ccccc4Oc4ccccc43)ccc21
False
